# systemName: recombinant DYRK1A kinase (Homo sapiens (Human), UniProt Q13627)
# assayNotes: DYRK1A kinase assay (Ser/Thr 18 peptide Z-lyte FRET);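 also: Read-out is the coumarin to fluorescein emission ratio, referenced to unphosphorylated (0%) and phosphorylated (100%) Ser/Thr 18 peptide controls, values from dose-response curves by non-linear regression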
# runParameters: 30 μM ATP, 1 h room temperature
Assignment: determine reported log10 of EC50 for the given molecules.
On a log10 scale: recorded EC50, unit nM.

Item: Cn1cc(-c2ccc3cnc(NC(=O)[C@@H]4CCCNC4)cc3c2)cn1 Test system: recombinant DYRK1A kinase (Homo sapiens (Human), UniProt Q13627) Read-out: log10 of EC50 Value: ? 0.59

# value lookup — system recombinant DYRK1A kinase (Homo sapiens (Human), UniProt Q13627), readout log10 of EC50, item Cn1cc(-c2ccc3cnc(NC(=O)CN4CCN(C5CC5)CC4)cc3c2)cn1 0.93

Lookup: log10 of EC50 / recombinant DYRK1A kinase (Homo sapiens (Human), UniProt Q13627) / O=C(Nc1cc2cc(-c3cncs3)ccc2cn1)C1CC(F)(F)C1 0.32

recombinant DYRK1A kinase (Homo sapiens (Human), UniProt Q13627) / log10 of EC50 / CN(CC(=O)Nc1cc2cc(-c3cnc4n3CCNC4)ccc2cn1)C1CCC1 : value? 1.85

Provide the documented log10 of EC50 with recombinant DYRK1A kinase (Homo sapiens (Human), UniProt Q13627) as the system for Cn1cc(-c2ccc3cnc(NC(=O)C4CCN(CC(F)F)CC4)cc3c2)cn1 0.11

Recall the recorded log10 of EC50 for Cn1ncc(-c2ccc3cnc(NC(=O)[C@H]4CCCN4)cc3c2)c1CN1CCCCC1 with recombinant DYRK1A kinase (Homo sapiens (Human), UniProt Q13627) and state it. 1.10

Give recombinant DYRK1A kinase (Homo sapiens (Human), UniProt Q13627) log10 of EC50 for Cc1nnc(-c2ccc3cnc(NC(=O)CN4C[C@H]5C[C@@H]4CO5)cc3c2)s1 1.23

Form field: log10 of EC50 recorded for CN1CCC(C(=O)Nc2cc3cc(-c4cnn(C)c4CO)ccc3cn2)CC1 with recombinant DYRK1A kinase (Homo sapiens (Human), UniProt Q13627) (enter value) 0.61
